These measurements were taken from ChEMBL document CHEMBL1275368.

Here, each record is paired with measured IC50 data.
- study.system: Replicase polyprotein 1ab (Severe acute respiratory syndrome-related coronavirus, UniProt P0C6X7)
Reply with just the number (in µM).

Below, 3 compounds whose answers are already recorded.
Fill in: IC50 of O=C(O)c1ccc(/C=C2\C(=O)N(c3cccc(Cl)c3)N=C2c2ccccc2)cc1 is ___
10.8

Now try O=C(O)c1ccc(/C=C2\C(=O)N(c3ccc(Cl)cc3)N=C2c2ccccc2)cc1 .
13.9

Now try O=C(O)c1ccc(/C=C2\C(=O)N(c3cccc([N+](=O)[O-])c3)N=C2c2ccccc2)cc1 .
8.4

Moving on to another compound below.
Fill in: IC50 of O=C(O)c1ccc(/C=C2\C(=O)N(c3ccc(OC(F)(F)F)cc3)N=C2c2ccccc2)cc1 is ___
42
